Listing of entries alongside the reported cytotoxicity at 70.5 h.
- Protocol Summary: Human HepG2 cell viability assay in 384 well format
- Assay type: toxicity, cell-based
- Set-up: dose 125 nL, time 70.5 hour; concentration not given beside the values
- Measurement Parameters: HepG2 cells, read-out: Inhibition
Answer format: numeric, % implied, no suffix.

Recorded cytotoxicity at 70.5 h, per entry:
INSERT INTO results (molecule, unit_annotation, val) VALUES
  ('COc1ccsc1C(=O)N1CCCC(n2nc(C)nc2C)C1 (stereo not given)', '%', 3.22),
  ('Cc1noc(C)c1CC(=O)NCCc1cccs1', '%', 7.71);

Incoming: Entry COCCCNC(=O)c1cc(-c2cnc(N3CCOCC3)nc2)cn1C : reported cytotoxicity at 70.5 h = ?
Outgoing: -6.15

Incoming: Entry CCOCCN1CCc2cncnc2C1 : reported cytotoxicity at 70.5 h = ?
Outgoing: 27.9

Incoming: Entry CCc1nc(C2CCCN2C(=O)c2cnns2)no1 (stereo not given) : reported cytotoxicity at 70.5 h = ?
Outgoing: -8.27

Incoming: Entry CC(C)CCn1nc2ccc(S(=O)(=O)N3CCOCC3)cn2c1=O : reported cytotoxicity at 70.5 h = ?
Outgoing: -7.21

Incoming: Entry COCc1nc(NC(C)c2c(C)n[nH]c2C)c2cnn(C)c2n1 (stereo not given) : reported cytotoxicity at 70.5 h = ?
Outgoing: -5.38

Incoming: Entry Cc1ccnc(NCCNC(=O)c2ccccc2NCC(=O)O)c1 : reported cytotoxicity at 70.5 h = ?
Outgoing: 5.62

Incoming: Entry Cc1ccccc1C(=O)N1CCN(c2ccc(-n3cncn3)nn2)CC1 : reported cytotoxicity at 70.5 h = ?
Outgoing: -4.18

Incoming: Entry CC(=O)N1CCC2(CC1)C(=O)N(CC1CC1)c1ccccc12 : reported cytotoxicity at 70.5 h = ?
Outgoing: -11.9

Incoming: Entry COCCNC(=O)c1ccnn1-c1ccc2ccccn12 : reported cytotoxicity at 70.5 h = ?
Outgoing: -4.72

Incoming: Entry COC(=O)N1CCC(Nc2cccc(F)c2C(C)=O)C1 (stereo not given) : reported cytotoxicity at 70.5 h = ?
Outgoing: -9.32

Incoming: Entry COc1ccc(C(=O)NCc2ccon2)cc1F : reported cytotoxicity at 70.5 h = ?
Outgoing: -5.07

Incoming: Entry COCCS(=O)(=O)NC(C)c1ccc(-n2nc(C)cc2C)cc1 (stereo not given) : reported cytotoxicity at 70.5 h = ?
Outgoing: 3.86

Incoming: Entry CCc1n[nH]c(=O)c(C(=O)N2CCOC3(CCCC3)C2)c1CC : reported cytotoxicity at 70.5 h = ?
Outgoing: -2.62

* * *

- Protocol Summary: Human HepG2 cell viability assay in 384 well format
- Format: toxicity, cell-based
- Parameters: dose 125 nL, time 70.5 hour; concentration not given beside the values
- Measurement Parameters: HepG2 cells, read-out: Inhibition
Experimental Readout: cytotoxicity at 70.5 h (%)
Answer format: numeric, % implied, no suffix.

INSERT INTO results (molecule, val) VALUES
  ('CN(Cc1csc(-c2ccccc2)n1)C(=O)CCn1ccccc1=O', -0.921),
  ('Cc1ccc(C)c2c(C)c(C(=O)NCCCn3cnnc3)[nH]c12', -6.86);

Incoming: Entry Cc1noc(C)c1CN1CCO[C@H]2CNC[C@H]21 : reported cytotoxicity at 70.5 h = ?
Outgoing: -6.78

Incoming: Entry CSCC[C@@H](CO)n1ccnc1-c1ccncc1 : reported cytotoxicity at 70.5 h = ?
Outgoing: -10.3

Incoming: Entry COc1cc(N2CCCC(c3nccn3CCN(C)C)C2)nc(N)n1 (centres undefined) : reported cytotoxicity at 70.5 h = ?
Outgoing: -8.19

Incoming: Entry COCC1CCN(C(=O)c2cn(Cc3ccccc3F)nn2)CC1 : reported cytotoxicity at 70.5 h = ?
Outgoing: 5.43

Incoming: Entry CC(C)N1CCC(CC(=O)NCc2cc(O)ncn2)CC1 : reported cytotoxicity at 70.5 h = ?
Outgoing: -2.08

Incoming: Entry Cc1noc(-c2ccc(N3CCN(Cc4ncccc4C)CC3)nc2)n1 : reported cytotoxicity at 70.5 h = ?
Outgoing: -7.47

* * *

- Protocol Summary: Human HepG2 cell viability assay in 384 well format
- Type: toxicity, cell-based
- Parameters: dose 125 nL, time 70.5 hour; concentration not given beside the values
- Measurement Parameters: HepG2 cells, read-out: Inhibition
Listing of entries alongside the reported cytotoxicity at 70.5 h.
Answer format: numeric, % implied, no suffix.

Recorded cytotoxicity at 70.5 h, per entry:
INSERT INTO measurements (compound, experimental_readout, val) VALUES
  ('O=S(=O)(CCC1CCCO1)NCc1ncc(-c2ccccc2)o1 (centres undefined)', 'cytotoxicity at 70.5 h', 5),
  ('CCn1cnnc1CCNC(=O)c1ccc(F)c(Br)c1', 'cytotoxicity at 70.5 h', -12.1),
  ('COc1ccccc1C(O)CNC(=O)Nc1ncccc1C (centres undefined)', 'cytotoxicity at 70.5 h', 7.49);

Incoming: Entry Cc1noc(C)c1-c1nc(C2CCCN(C(=O)CN)C2)ccc1CO (centres undefined) : reported cytotoxicity at 70.5 h = ?
Outgoing: -11.3

Incoming: Entry CCC1c2ccc(C)n2CCN1C(=O)Cn1cnc2sc(C)cc2c1=O (centres undefined) : reported cytotoxicity at 70.5 h = ?
Outgoing: -5.17

* * *

- Protocol Summary: Human HepG2 cell viability assay in 384 well format
- Assay type: toxicity, cell-based
- Set-up: dose 125 nL, time 70.5 hour; concentration not given beside the values
- Measurement Parameters: HepG2 cells, read-out: Inhibition
Experimental Readout: cytotoxicity at 70.5 h (%)
Answer format: numeric, % implied, no suffix.

INSERT INTO results (compound, val) VALUES
  ('O=C(c1cncc(N2CCC3(CCCNC3)C2)n1)N1CCCC1 (configuration not stated)', -5.37),
  ('C/C=C(/C)C(=O)NS(=O)(=O)c1ccc(C(F)(F)F)cn1', -18.7),
  ('CC(Cn1cccn1)NCc1csc(-c2ccccc2F)n1 (configuration not stated)', -15.5),
  ('Cc1nc(C)c(C(=O)N2CCCC2c2nc(O)cc(C(C)C)n2)s1 (configuration not stated)', -6.05),
  ('COc1cc2c(cc1CNC(Cc1cccs1)c1nccs1)OCCO2 (configuration not stated)', -3.19),
  ('CC(C)c1ccc2c(c1)CCCN2C(=O)CN(C)S(C)(=O)=O', -94.4);

Incoming: Entry CC(NC(=O)Nc1ccc(N2CCCC2)nc1)c1nncn1C (configuration not stated) : reported cytotoxicity at 70.5 h = ?
Outgoing: 5.27

Incoming: Entry Cc1ncsc1CN1C[C@H](OCC(C)C)[C@H]2OCCC[C@H]21 : reported cytotoxicity at 70.5 h = ?
Outgoing: -0.162

Incoming: Entry O=C(N1CCCC(n2cncn2)C1)C1(c2ccc(Cl)cc2)CCC1 (configuration not stated) : reported cytotoxicity at 70.5 h = ?
Outgoing: -7.28

* * *

Listing of entries alongside the reported cytotoxicity at 70.5 h.
- Protocol Summary: Human HepG2 cell viability assay in 384 well format
- Type: toxicity, cell-based
- Parameters: dose 125 nL, time 70.5 hour; concentration not given beside the values
- Measurement Parameters: HepG2 cells, read-out: Inhibition
Answer format: numeric, % implied, no suffix.

Recorded cytotoxicity at 70.5 h, per entry:
INSERT INTO measurements (molecule, experimental_readout, unit_annotation, val) VALUES
  ('CNS(=O)(=O)c1cccc(CNc2ncccn2)c1', 'cytotoxicity at 70.5 h', '%', -1.46),
  ('CCCc1noc(C[S+]([O-])CC(=O)NCc2ccccc2)n1 (stereo not given)', 'cytotoxicity at 70.5 h', '%', 15.8),
  ('COCC(=O)N1CCC(c2cc(-c3ccc(C)cc3)n[nH]2)C1 (stereo not given)', 'cytotoxicity at 70.5 h', '%', 14.4),
  ('Cc1ccc(OCC(O)Cn2ncc3cnn(C)c(=O)c32)cc1 (stereo not given)', 'cytotoxicity at 70.5 h', '%', -6.88),
  ('Cc1cc(C)n(-c2cc(N3CCN(C(=O)C(C)(C)C)CC3)nc(C)n2)n1', 'cytotoxicity at 70.5 h', '%', 2.21),
  ('CCCC(=O)NCCc1nc(N(C)C)ncc1-c1ccncc1', 'cytotoxicity at 70.5 h', '%', -7.54);

Incoming: Entry CCOc1ccc(-c2c(-c3ccccc3)ncn2C2CCNC2)cn1 (stereo not given) : reported cytotoxicity at 70.5 h = ?
Outgoing: -12.8

Incoming: Entry Cc1cc(C(=O)Nc2cccn(Cc3ccc(F)cc3)c2=O)on1 : reported cytotoxicity at 70.5 h = ?
Outgoing: -3.03

Incoming: Entry CN1CCCC2(CCN(C(=O)Cc3cc4c(cc3Cl)OCCO4)C2)C1=O (stereo not given) : reported cytotoxicity at 70.5 h = ?
Outgoing: -2.31

Incoming: Entry CC(Nc1ccc(F)cc1)c1nnnn1-c1ccccc1 (stereo not given) : reported cytotoxicity at 70.5 h = ?
Outgoing: -109

Each recorded value in this set is attributed to ChEMBL document CHEMBL3507680.
